Test system: Pasteurella multocida
Assay: minimum inhibitory concentration (MIC)
Conditions: isolate (source animal id): 174
assay_endpoint: minimum inhibitory concentration

>>> reported_measurement("CC1(C)S[C@@H]2[C@H](NC(=O)[C@H](N)c3ccccc3)C(=O)N2[C@H]1C(=O)O")
"≤ 0.25 µg/mL"
>>> reported_measurement("COc1cc(Cc2cnc(N)nc2N)cc(OC)c1OC.Cc1cc(NS(=O)(=O)c2ccc(N)cc2)no1")
"≤ 2 µg/mL"
>>> reported_measurement("COc1cc(NS(=O)(=O)c2ccc(N)cc2)nc(OC)n1")
"> 256 µg/mL"
>>> reported_measurement("CN(C)[C@@H]1C(O)=C(C(N)=O)C(=O)[C@@]2(O)C(O)=C3C(=O)c4c(O)cccc4[C@@](C)(O)[C@H]3C[C@@H]12")
"> 8 µg/mL"
>>> reported_measurement("NC[C@@H]1O[C@H](O[C@H]2[C@@H](O)[C@H](O[C@@H]3[C@@H](O)[C@H](N)C[C@H](N)[C@H]3O[C@H]3O[C@H](CN)[C@@H](O)[C@H](O)[C@H]3N)O[C@@H]2CO)[C@H](N)[C@@H](O)[C@@H]1O")
"> 32 µg/mL"
>>> reported_measurement("CC[C@H]1OC(=O)C[C@@H](O)[C@H](C)[C@@H](O[C@@H]2O[C@H](C)[C@@H](O)[C@H](N(C)C)[C@H]2O)[C@@H](CCN2C[C@H](C)C[C@H](C)C2)C[C@@H](C)C(=O)/C=C/C(C)=C/[C@@H]1CO[C@@H]1O[C@H](C)[C@@H](O)[C@@H](OC)[C@H]1OC")
"8 µg/mL"
>>> reported_measurement("CCC[C@@H]1C[C@@H](C(=O)N[C@@H]([C@H]2O[C@H](SC)[C@H](O)[C@@H](O)[C@H]2O)[C@H](C)Cl)N(C)C1")
"> 16 µg/mL"
